system: P. aeruginosa; test: Checkerboard assay (antibiotic + adjuvant combination MIC); type: cell-based, Pseudomonas aeruginosa; details: PA 259-96918; compound at 8 μM

[
  {
    "molecule": "Cl.Cl.Cl.Cl.Cl.Cl.NC[C@H]1O[C@H](O[C@H]2[C@H](OCCCCCCCCCCCCN3CCN(c4cc5c(cc4F)c(=O)c(C(=O)O)cn5C4CC4)CC3)[C@@H](O[C@H]3O[C@H](CO)[C@@H](O)[C@H](N)[C@H]3O)[C@H](N)C[C@@H]2N)[C@H](N)C[C@@H]1O [Compound 21, Tobramycin-ciprofloxacin]",
    "target desc": "P. aeruginosa",
    "MIC of ATM in the presence of compound [µg/mL]": 8
  },
  {
    "molecule": "N=C(N)NC[C@H]1O[C@H](O[C@H]2[C@H](OCCCCCCCCCCCCN3CCN(c4cc5c(cc4F)c(=O)c(C(=O)O)cn5C4CC4)CC3)[C@@H](O[C@H]3O[C@H](CO)[C@@H](O)[C@H](NC(=N)N)[C@H]3O)[C@H](NC(=N)N)C[C@@H]2NC(=N)N)[C@H](NC(=N)N)C[C@@H]1O [Compound 27]",
    "target desc": "P. aeruginosa",
    "MIC of ATM in the presence of compound [µg/mL]": 32
  },
  {
    "molecule": "Cl.Cl.Cl.Cl.Cl.NC[C@H]1O[C@H](O[C@H]2[C@H](OCCCCCCCCCCCCN3CCN(c4cc5c(cc4F)c(=O)c(C(=O)O)cn5C4CC4)CC3)[C@@H](O)[C@H](N)C[C@@H]2N)[C@H](N)C[C@@H]1O [Compound 24]",
    "target desc": "P. aeruginosa",
    "MIC of ATM in the presence of compound [µg/mL]": 8
  },
  {
    "molecule": "NC[C@H]1O[C@H](O[C@H]2[C@H](OCCCCc3cn(CCCCO[C@@H]4[C@@H](O)[C@H](N)C[C@H](N)[C@H]4O[C@H]4O[C@H](CN)[C@@H](O)C[C@H]4N)nn3)[C@@H](O)[C@H](N)C[C@@H]2N)[C@H](N)C[C@@H]1O [Compound 26, Nebramine Homodimer]",
    "target desc": "P. aeruginosa",
    "MIC of ATM in the presence of compound [µg/mL]": 8
  }
]
